Hello, the source for this data is patent US8987258B2, in case you need it.

tested-system: UniProt Q96EB6
Sequence (Q96EB6 1-747): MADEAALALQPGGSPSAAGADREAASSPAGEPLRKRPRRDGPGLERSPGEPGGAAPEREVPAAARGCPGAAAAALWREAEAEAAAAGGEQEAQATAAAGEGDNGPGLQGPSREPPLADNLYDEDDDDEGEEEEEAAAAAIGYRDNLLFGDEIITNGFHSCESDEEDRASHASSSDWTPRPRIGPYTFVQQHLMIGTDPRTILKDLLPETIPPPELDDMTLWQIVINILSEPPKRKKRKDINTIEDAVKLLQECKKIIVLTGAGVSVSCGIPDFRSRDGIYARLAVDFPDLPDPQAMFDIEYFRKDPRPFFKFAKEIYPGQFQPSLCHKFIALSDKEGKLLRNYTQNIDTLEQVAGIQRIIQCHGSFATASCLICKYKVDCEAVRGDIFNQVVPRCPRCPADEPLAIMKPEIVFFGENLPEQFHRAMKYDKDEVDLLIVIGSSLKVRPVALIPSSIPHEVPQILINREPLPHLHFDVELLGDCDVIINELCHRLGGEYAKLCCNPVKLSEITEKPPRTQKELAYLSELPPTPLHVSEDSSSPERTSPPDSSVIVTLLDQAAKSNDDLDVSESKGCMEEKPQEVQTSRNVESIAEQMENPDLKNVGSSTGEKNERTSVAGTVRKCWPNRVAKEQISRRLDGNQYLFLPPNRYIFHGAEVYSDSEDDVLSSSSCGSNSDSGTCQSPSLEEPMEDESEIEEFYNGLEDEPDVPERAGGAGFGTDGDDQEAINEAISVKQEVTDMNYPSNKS
assay-protocol: Mass spectrometry based SIRT1 deacetylase activation assay
Format: biochemical
assay-context: 25 min, mass spectrometry assay, read-out: % Fold Act. (percent maximum fold activation)
value-type: Emax

>  <smiles>
Cc1cnc(NC(=O)c2cccc3c(=O)cc(-c4cnccc4C(F)(F)F)oc23)s1

>  <Emax>
< 200%

$$$$
>  <smiles>
O=C(Nc1cccc2c(=O)cc(-c3cccnc3)oc12)c1cnccn1

>  <Emax>
< 200%

$$$$
>  <smiles>
O=C(Nc1cccc2c(=O)cc(-c3cccnc3)oc12)c1ccccn1

>  <Emax>
< 200%

$$$$
>  <smiles>
O=C(Nc1cccc2c(=O)cc(-c3ccccc3Cl)oc12)c1ncccn1

>  <Emax>
> 200%

$$$$
>  <smiles>
O=C(Nc1cccc2c(=O)cc(-c3ccccc3OC(F)F)oc12)c1cnccn1

>  <Emax>
< 200%

$$$$

For this compound ( O=C(Nc1cccc2c(=O)cc(-c3cc(F)ccc3F)oc12)c1cscn1 ), measured Emax is < 200%

For this compound ( O=C(Nc1cccc2c(=O)cc(-c3cccc(N4CCOCC4)c3)oc12)c1cnccn1 ), measured Emax is < 200%

For this compound ( O=C(Nc1cccc2c(=O)cc(-c3c(F)cccc3F)oc12)c1cnccn1 ), measured Emax is < 200%

---

tested-system: SIRT1 (Homo sapiens)
assay-protocol: Mass spectrometry based SIRT1 deacetylase activation assay
Format: biochemical
assay-context: 0.5 μM peptide substrate, 120 μM βNAD+, 10 nM SIRT1, 25 min, 25° C.
value-type: EC1.5 μM

>  <molecule>
O=C(Nc1cccc2c(=O)cc(-c3ccccc3C(F)(F)F)oc12)c1cccc(OCC(O)CO)n1 (stereo not shown) [Compound 318]

>  <tested-system>
SIRT1 (Homo sapiens)

>  <value-reported>
A (EC1-5<1.0)

$$$$
>  <molecule>
O=C(Nc1cccc2c(=O)cc(-c3ccccc3Cl)oc12)c1cccc(CN2CCOCC2)n1 [Compound 331]

>  <tested-system>
SIRT1 (Homo sapiens)

>  <value-reported>
A (EC1-5<1.0)

$$$$
>  <molecule>
O=C(Nc1cccc2c(=O)cc(-c3c(F)cccc3F)oc12)c1cnccn1 [Compound 290]

>  <tested-system>
SIRT1 (Homo sapiens)

>  <value-reported>
C (EC1.5>25 μM)

$$$$
>  <molecule>
O=C(Nc1cccc2c(=O)cc(-c3cccc(F)c3F)oc12)c1cnccn1 [Compound 288]

>  <tested-system>
SIRT1 (Homo sapiens)

>  <value-reported>
B (EC1.5 1-25 μM)

$$$$
>  <molecule>
O=C(Nc1cccc2c(=O)cc(-c3cnccc3C(F)(F)F)oc12)c1cscn1 [Compound 309]

>  <tested-system>
SIRT1 (Homo sapiens)

>  <value-reported>
B (EC1.5 1-25 μM)

$$$$

Assay SIRT1 (Homo sapiens), sample O=C(Nc1cccc2c(=O)cc(-c3cccnc3)oc12)c1cnccn1 [Compound 217] , EC1.5 μM read: C (EC1.5>25 μM)

Assay SIRT1 (Homo sapiens), sample O=C(Nc1nccs1)c1cccc2c(=O)cc(-c3cccc(C(F)(F)F)c3)oc12 [Compound 206] , EC1.5 μM read: C (EC1.5>25 μM)

---

tested-system: SIRT1 (Homo sapiens, UniProt Q96EB6)
assay-protocol: Mass spectrometry based SIRT1 deacetylase activation assay
Assay type: biochemical
assay-context: 25 min, mass spectrometry assay, read-out: % Fold Act. (percent maximum fold activation)
value-type: Emax

Would you please look over these solved cases?
>  <compound>
O=C(Nc1cccc2c(=O)cc(-c3ccc(OC(F)(F)F)cc3)oc12)c1cnccn1

>  <value-reported>
< 200%

$$$$
>  <compound>
O=C(Nc1cccc2c(=O)cc(-c3ccc(C(F)(F)F)cc3)oc12)c1cscn1

>  <value-reported>
< 200%

$$$$
>  <compound>
O=C(Nc1cccc2c(=O)cc(-c3cccc(F)c3Cl)oc12)c1cnccn1

>  <value-reported>
< 200%

$$$$

For this compound ( O=C1CCC(C(=O)Nc2cccc3c(=O)cc(-c4ccccc4C(F)(F)F)oc23)N1 (stereo not shown) ), measured Emax is > 200%

For this compound ( O=C(Nc1cccc2c(=O)cc(-c3ccccc3C(F)F)oc12)c1cccc(OCC(O)CO)n1 (stereo not shown) ), measured Emax is > 200%

For this compound ( Cc1cnc(NC(=O)c2cccc3c(=O)cc(-c4cccc(C(F)(F)F)c4)oc23)s1 ), measured Emax is < 200%

For this compound ( Cc1cnc(NC(=O)c2cccc3c(=O)cc(-c4ccccc4C(C)C)oc23)s1 ), measured Emax is < 200%
